Origin of values: paper PMC10119128

Biological target: ATP13A2 (Homo sapiens)
Construct: full-length, N-terminal Xpress-tag, membrane fractions of transfected HEK293 cells
Sequence (Q9NQ11 1-1180): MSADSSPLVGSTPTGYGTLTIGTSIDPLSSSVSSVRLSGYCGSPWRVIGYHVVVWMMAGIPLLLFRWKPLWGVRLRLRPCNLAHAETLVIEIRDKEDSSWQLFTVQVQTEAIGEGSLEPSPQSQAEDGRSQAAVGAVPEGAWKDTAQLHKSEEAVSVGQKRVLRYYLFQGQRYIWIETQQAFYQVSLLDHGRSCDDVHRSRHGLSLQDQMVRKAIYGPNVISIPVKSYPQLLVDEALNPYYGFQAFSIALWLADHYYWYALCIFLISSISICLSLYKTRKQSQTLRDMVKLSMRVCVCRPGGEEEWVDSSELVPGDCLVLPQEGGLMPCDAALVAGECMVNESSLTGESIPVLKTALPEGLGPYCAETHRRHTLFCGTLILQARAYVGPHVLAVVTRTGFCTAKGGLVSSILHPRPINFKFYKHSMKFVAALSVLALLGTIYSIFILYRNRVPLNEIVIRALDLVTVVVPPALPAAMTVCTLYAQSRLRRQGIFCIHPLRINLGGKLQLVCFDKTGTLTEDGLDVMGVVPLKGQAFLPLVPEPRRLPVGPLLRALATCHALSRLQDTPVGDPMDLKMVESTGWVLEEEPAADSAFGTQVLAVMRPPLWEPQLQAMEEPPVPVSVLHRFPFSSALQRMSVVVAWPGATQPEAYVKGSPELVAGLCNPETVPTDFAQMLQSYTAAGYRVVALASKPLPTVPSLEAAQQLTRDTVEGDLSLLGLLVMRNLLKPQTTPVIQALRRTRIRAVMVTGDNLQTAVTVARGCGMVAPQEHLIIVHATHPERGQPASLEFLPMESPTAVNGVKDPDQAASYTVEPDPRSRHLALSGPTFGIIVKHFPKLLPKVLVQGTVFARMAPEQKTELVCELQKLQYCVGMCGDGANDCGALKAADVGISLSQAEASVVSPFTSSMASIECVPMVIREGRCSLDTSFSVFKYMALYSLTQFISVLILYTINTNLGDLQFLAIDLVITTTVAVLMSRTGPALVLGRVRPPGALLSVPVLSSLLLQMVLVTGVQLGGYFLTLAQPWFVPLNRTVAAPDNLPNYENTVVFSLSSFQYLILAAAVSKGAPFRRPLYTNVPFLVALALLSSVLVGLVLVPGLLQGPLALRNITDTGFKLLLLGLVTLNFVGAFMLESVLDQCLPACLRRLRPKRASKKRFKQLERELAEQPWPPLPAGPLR
Experiment: ΔTG-sensitive ATPase activity in membrane fractions, mock control; […]+ efflux; siRNA knockdown in SH-SY5Y
Assay type: biochemical
pIC50: −log10 of the molar value.
measured metric: pIC50

CNCc1cc(-c2ccccc2F)n(S(=O)(=O)c2cccnc2)c1
6.10
Cc1nc2c(OCc3ccccc3)cccn2c1CC#N
5.92
